Origin of the recorded values: the supplement of paper PMC7877785

- test-summary: self-splicing fitness, log relative to wild type (ln ratio); higher = more splicing; Tetrahymena group I intron in knt gene, E. coli kanamycin selection, DiMSum; sequences stand for … in CUCUCU…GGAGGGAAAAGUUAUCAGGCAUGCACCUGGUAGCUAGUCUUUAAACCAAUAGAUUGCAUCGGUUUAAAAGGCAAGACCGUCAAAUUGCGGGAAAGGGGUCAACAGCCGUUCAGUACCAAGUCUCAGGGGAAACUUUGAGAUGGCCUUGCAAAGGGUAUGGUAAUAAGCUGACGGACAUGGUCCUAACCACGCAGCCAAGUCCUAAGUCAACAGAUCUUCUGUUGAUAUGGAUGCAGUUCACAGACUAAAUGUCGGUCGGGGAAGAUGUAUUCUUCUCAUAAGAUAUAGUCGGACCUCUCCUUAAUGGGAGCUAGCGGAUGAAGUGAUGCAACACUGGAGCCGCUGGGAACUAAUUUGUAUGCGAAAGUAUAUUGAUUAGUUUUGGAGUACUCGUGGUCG;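 further: selection with 25 µg/mL kanamycin versus none on LB agar overnight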
- condition: 37 °C
Please note: YES applies when self-splicing fitness (ln) is -2 or greater, and NO applies otherwise.

Below are worked cases with known answers.
## Task Check this sequence for self-splicing fitness (ln) at or above -2: UAGGAGCAAUAUUACGCGUG
## Result YES

## Task Hi team, for UGUGAGCAAUAUUACGUUAU , is the recorded self-splicing fitness (ln) at or above -2?
## Result NO

## Task Quick check, self-splicing fitness (ln) >= -2? CGCUAGCAAUAUUACGCCCG
## Result YES

## Task Identify whether the reported self-splicing fitness (ln) of the following sequence is -2 or greater: ACUCAGCAAUAUUACGCAAG
## Result YES

## Task For this sequence, is measured self-splicing fitness (ln) -2 or higher? UUCAAGCAAUAUUACGUAAC
## Result NO

***
## Task Tell me whether self-splicing fitness (ln) is at least -2 here: UCAGAGCAAUAUUACGGUGU
## Result NO

## Task Can CCUUAGCAAUAUUACGAUAA be said to have self-splicing fitness (ln) at or above -2?
## Result NO

## Task Decide: self-splicing fitness (ln) of GCCCAGCAAUAUUACGAAUC >= -2?
## Result YES

## Task Check this sequence for self-splicing fitness (ln) at or above -2: GACAAGCAAUAUUACGAGCG
## Result YES

## Task Please indicate if the recorded self-splicing fitness (ln) for AUGCAGCAAUAUUACGAAGA meets or exceeds -2.
## Result NO

## Task self-splicing fitness (ln) >= -2 for GGCAAGCAAUAUUACGGGAG ?
## Result YES

## Task Does self-splicing fitness (ln) meet or surpass -2 for GAGUAGCAAUAUUACGGGAC ?
## Result YES

## Task Is the recorded value of self-splicing fitness (ln) equal to or greater than -2 for this sequence? GUCGAGCAAUAUUACGCAGA
## Result YES

## Task Decide: self-splicing fitness (ln) of ACGAAGCAAUAUUACGGAUU >= -2?
## Result YES
